Numbers sourced from ChEMBL document CHEMBL1649134.

- Test system: Klebsiella aerogenes
- protocol: Antimicrobial activity against multidrug resistant Enterobacter aerogenes isolate 23 by broth dilution method
- Format: functional
observable: MIC (µg/mL)
# number only, unit µg/mL dropped from output

[
  {
    "compound": "CO[C@@]1(NC(=O)Cc2cccs2)C(=O)N2C(C(=O)O)=C(COC(N)=O)CS[C@@H]21",
    "observable": "MIC",
    "result": 256
  }
]

Query: Data request, read-out MIC, for "O=C(N[C@H](CO)[C@H](O)c1ccc([N+](=O)[O-])cc1)C(Cl)Cl"
Response: 512

Query: Data request, read-out MIC, for "CN(C)[C@@H]1C(O)=C(C(N)=O)C(=O)[C@@]2(O)C(O)=C3C(=O)c4c(O)cccc4[C@@](C)(O)[C@H]3C[C@@H]12"
Response: 64

Query: Data request, read-out MIC, for C[C@@H](O)[C@H]1C(=O)N2C(C(=O)O)=C(SCCNC=N)C[C@H]12 [IMIPENEM ANHYDROUS]
Response: 1

Query: Data request, read-out MIC, for "CC(C)(O/N=C(\C(=O)N[C@@H]1C(=O)N2C(C(=O)[O-])=C(C[n+]3ccccc3)CS[C@H]12)c1csc(N)n1)C(=O)O"
Response: 2050

Query: Data request, read-out MIC, for "CO/N=C(\C(=O)N[C@@H]1C(=O)N2C(C(=O)[O-])=C(C[N+]3(C)CCCC3)CS[C@H]12)c1csc(N)n1"
Response: 64

Query: Data request, read-out MIC, for "C[C@@H]1CN(c2c(F)c(N)c3c(=O)c(C(=O)O)cn(C4CC4)c3c2F)C[C@H](C)N1"
Response: 128

Query: Data request, read-out MIC, for "CCn1cc(C(=O)O)c(=O)c2cc(F)c(N3CCNCC3)cc21"
Response: 512
